# tgt: erythrocytes infected with P. falciparum field isolate 9215
# assay.protocol: flow cytometry, staining of IEs
measured.attribute: % parasite recognition (%)
Field format: number, assumed %, no unit text.

[ask] Look up and report measured % parasite recognition for this entry: MGC32 (antibody) VH: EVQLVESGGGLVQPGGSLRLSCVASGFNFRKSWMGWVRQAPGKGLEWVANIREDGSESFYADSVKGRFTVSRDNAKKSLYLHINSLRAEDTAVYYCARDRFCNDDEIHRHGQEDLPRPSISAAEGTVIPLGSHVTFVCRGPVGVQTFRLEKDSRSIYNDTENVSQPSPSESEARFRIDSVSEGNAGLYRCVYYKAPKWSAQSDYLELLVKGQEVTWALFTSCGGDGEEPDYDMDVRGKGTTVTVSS VL: DILMTQSPDSLAVSLGERATINCKSSQSVLYRSKNKNYLAWFQQKPGQPPKVLIYSTSTRASGVPDRFTGSGSGTDFTLTISSLQAEDVAVYYCLQYYITPYTFGQGTKLEIK
[reply] 13.1

Cited source: patent US20180186897A1
